- Test system: Rat PRP (platelet aggregation)
- assay-explanation: Antiplatelet aggregation effect, rat platelet rich plasma (PRP)
- Assay type: cell-based, male Wister rats
- measurement-setup: aggregating agent collagen 2.5 to 10 μg/ml, 37° C., 2 minutes incubation, Table II, hydrochloride, read-out: Rat PRP IC50, Collagen
Where a name gives a salt, the structure may show the parent alone.
reported-endpoint: IC50 (µM)
Respond numerically; units are µM and should not be typed.

[ask] Give recorded IC50. O=c1[nH]nc(OCCC(O)c2ccc(Cl)cc2)c(NCc2cccnc2)c1Br (stereo not shown) [Compound No. 65, hydrochloride]
[reply] 0.22
